The following molecules are shown together with reported Emax at 10 µM values.
# target_system: human β3-adrenergic receptor (Homo sapiens, UniProt P13945)
# Construct: expressed in transfected cells
# Sequence (P13945 whole entry): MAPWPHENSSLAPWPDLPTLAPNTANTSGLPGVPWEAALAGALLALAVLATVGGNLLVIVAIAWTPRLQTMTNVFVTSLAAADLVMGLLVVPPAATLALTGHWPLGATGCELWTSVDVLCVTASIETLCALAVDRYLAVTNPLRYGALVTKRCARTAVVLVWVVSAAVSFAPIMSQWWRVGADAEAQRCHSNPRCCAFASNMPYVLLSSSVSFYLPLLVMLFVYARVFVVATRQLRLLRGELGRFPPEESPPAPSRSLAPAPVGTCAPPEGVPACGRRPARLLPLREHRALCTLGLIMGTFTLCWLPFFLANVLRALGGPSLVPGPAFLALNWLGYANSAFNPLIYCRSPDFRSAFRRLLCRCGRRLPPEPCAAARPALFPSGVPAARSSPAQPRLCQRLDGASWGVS
# measurement_notes: cAMP levels in CHO-K1 cells expressing the human β3-adrenergic receptor
# Format: cell-based
# particulars: CHO-K1, 0.25 h, 15 min, read-out: Activity (intracellular cAMP compared to that of isoproterenol)
readout_kind: Emax at 10 µM

>  <smiles_str>
CN(C)C(=O)N1CCC[C@@H](CC(C)(C)NC[C@H](O)c2cncc(F)c2)C1

>  <value_measured>
50 to 75%

$$$$
>  <smiles_str>
O[C@H](c1cccc(F)c1)C12CCC(Cc3ccccc3)(CC1)N2

>  <value_measured>
50 to 75%

$$$$
>  <smiles_str>
CC(C)(C[C@H]1CC[C@H](O)CC1)NC[C@H](O)c1cccc(F)c1

>  <value_measured>
> 75%

$$$$
>  <smiles_str>
CCCCS(=O)(=O)N[C@H]1CC[C@H](CC(C)(C)NC[C@H](O)c2cncc(F)c2)CC1

>  <value_measured>
> 75%

$$$$
>  <smiles_str>
CCC[C@@H](C)NC[C@H](O)c1cccc(O)c1

>  <value_measured>
> 75%

$$$$
>  <smiles_str>
CO[C@H]1CC[C@@H](C[C@@H]2CC[C@H]([C@H](O)c3cccc(F)c3F)N2)CC1

>  <value_measured>
50 to 75%

$$$$
>  <smiles_str>
CC(C)(C[C@H]1CC[C@H](S(N)(=O)=O)CC1)NC[C@H](O)c1cccc(F)c1

>  <value_measured>
> 75%

$$$$
>  <smiles_str>
CC(C)(C[C@H]1CC[C@H](C#N)CC1)NC[C@H](O)c1cccc(F)c1

>  <value_measured>
50 to 75%

$$$$
